Measured TG of individual entries
Species: Rattus norvegicus
PROTOCOL_NOTES: Open TG-GATES - Regimen: Daily Repeat
Format: toxicity, organism-based, Sprague-Dawley
Set-up: regimen Daily Repeat, gender Male, age 6 weeks
CONDITIONS_USED: in vivo, po, 100 mg/kg, […], tissue Plasma, route gavage, dose level Low, time 7 day

| COMPOUND | TG |
| --- | --- |
| CC(S)C(=O)NCC(=O)O (centres undefined) | 103.2 mg/dL |
| CC(=O)[C@@]1(O)CC[C@H]2[C@@H]3C=C(Cl)C4=CC(=O)CC[C@]4(C)[C@H]3CC[C@@]21C | 200.6 mg/dL |
| CCCCNC(=O)NS(=O)(=O)c1ccc(C)cc1 [TOLBUTAMIDE] | 138.4 mg/dL |
| O=C(O)c1ccccc1Nc1ccccc1 | 136.8 mg/dL |
